The entries below come with measured polymerase ribozyme fitness (log ratio) values attached.
B1: TPR t1 (parent)
chain: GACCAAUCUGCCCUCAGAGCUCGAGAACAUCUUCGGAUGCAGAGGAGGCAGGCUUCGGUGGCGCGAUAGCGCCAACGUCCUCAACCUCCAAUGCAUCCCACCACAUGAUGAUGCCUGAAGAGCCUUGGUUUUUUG

Variants of: B1
Experiment: polymerase ribozyme fitness, log enrichment relative to wild type (log ratio); higher = more active; in vitro selection for triplet polymerase activity
Lab note: record just the number, no unit beside it.

MUTATION CODE | READOUT VALUE
A26C U106A | -3.34
C72U C86U | -0.347
C8U C22G U55C C73A C98A A111G U112A | -6.04
C22A C76U | -4.72

Query :: Sample U9C C13U C53A U87C A100U — what was its polymerase ribozyme fitness (log ratio)?
Result :: -0.242

Query :: Sample G61U C86A A119C G120A — what was its polymerase ribozyme fitness (log ratio)?
Result :: -2.79

Query :: Sample A16C C82U G110A C123G U132A — what was its polymerase ribozyme fitness (log ratio)?
Result :: -4.33
